Test system: NCI-H1975
Test: Antiproliferative activity against human NCI-H1975 cells harboring EGFR L858R/T790M double mutant after 72 hrs by SRB assay
Assay type: functional, cell-based
Conditions: NCI-H1975, 72 h

| mol | qual | IC50 [nM] |
| --- | --- | --- |
| C=CC(=O)Nc1cccc(-n2c(=O)n(C(C)C)c(=O)c3cnc(Nc4ccc(N(C)CCN(C)C)cc4OC)nc32)c1 | = | 138 |
| C=CC(=O)Nc1cccc(-n2c(=O)n(C)c(=O)c3cnc(Nc4ccc(N5CCC(N(C)C)CC5)cc4OC)nc32)c1 | = | 230 |
| C=CC(=O)Nc1cccc(-n2c(=O)n(C)c(=O)c3cnc(Nc4ccc(N5CCOCC5)cc4OC)nc32)c1 | > | 10000 |
| C=CC(=O)Nc1cccc(-n2c(=O)n(C)c(=O)c3cnc(Nc4ccccc4)nc32)c1 | = | 9260 |
| C=CC(=O)Nc1cccc(-n2c(=O)n(CCC)c(=O)c3cnc(Nc4ccc(N5CCC(N(C)C)CC5)cc4OC)nc32)c1 | = | 60 |
| C=CC(=O)Nc1cccc(-n2c(=O)n(C(C)C)c(=O)c3cnc(Nc4ccc(N5CCN(C)CC5)c(OC)c4)nc32)c1 | = | 37 |
| C=CC(=O)Nc1cccc(-n2c(=O)n(C(C)C)c(=O)c3cnc(Nc4ccc(N5CCC(N6CCN(C)CC6)CC5)cc4OC)nc32)c1 | = | 154 |
| C=CC(=O)Nc1cccc(-n2c(=O)n(C(C)C)c(=O)c3cnc(Nc4ccc(N5CCC(N(C)C)CC5)cc4OC)nc32)c1 | = | 50 |

---

Experiment: Tmax in ICR mouse at 10 mg/kg, po by LC-MS/MS analysis
Type: ADME, organism-based
Settings: in vivo
metric_name: Tmax (h)

| mol | reading |
| --- | --- |
| C=CC(=O)Nc1cccc(-n2c(=O)n(C(C)C)c(=O)c3cnc(Nc4ccc(N5CCN(C)CC5)cc4OC)nc32)c1 | 2 |

---

Assay: AUC (0 to t) in ICR mouse at 10 mg/kg, po by LC-MS/MS analysis
Format: ADME, organism-based
Conditions: in vivo

| mol | u | AUC(0-t) |
| --- | --- | --- |
| C=CC(=O)Nc1cccc(-n2c(=O)n(C(C)C)c(=O)c3cnc(Nc4ccc(N5CCN(C)CC5)cc4OC)nc32)c1 | ng·h/mL | 650 |

---

Target: Cytochrome P450 1A2 (Homo sapiens)
Sequence (P05177 whole entry): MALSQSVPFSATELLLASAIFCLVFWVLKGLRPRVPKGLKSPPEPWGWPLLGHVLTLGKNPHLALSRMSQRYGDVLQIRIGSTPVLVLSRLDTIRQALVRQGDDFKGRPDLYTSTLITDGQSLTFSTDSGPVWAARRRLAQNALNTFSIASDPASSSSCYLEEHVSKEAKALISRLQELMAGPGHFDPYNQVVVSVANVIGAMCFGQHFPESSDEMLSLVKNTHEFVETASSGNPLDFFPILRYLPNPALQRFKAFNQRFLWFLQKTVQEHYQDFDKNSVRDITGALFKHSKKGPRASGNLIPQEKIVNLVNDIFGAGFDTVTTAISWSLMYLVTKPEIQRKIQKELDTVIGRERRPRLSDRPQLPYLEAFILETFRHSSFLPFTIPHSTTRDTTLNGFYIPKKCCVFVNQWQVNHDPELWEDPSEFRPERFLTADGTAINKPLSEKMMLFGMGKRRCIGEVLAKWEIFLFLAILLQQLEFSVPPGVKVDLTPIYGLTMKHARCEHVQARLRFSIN
Assay: Inhibition of human CYP1A2 (unknown origin)
Type: ADME
metric_name: IC50

| mol | reading |
| --- | --- |
| C=CC(=O)Nc1cccc(-n2c(=O)n(C(C)C)c(=O)c3cnc(Nc4ccc(N5CCN(C)CC5)cc4OC)nc32)c1 | > 50 µM |

---

Assay: Half life in ICR mouse at 1 mg/kg, iv by LC-MS/MS analysis
Assay type: ADME, organism-based
Conditions: in vivo

| mol | half-life (min) |
| --- | --- |
| C=CC(=O)Nc1cccc(-n2c(=O)n(C(C)C)c(=O)c3cnc(Nc4ccc(N5CCN(C)CC5)cc4OC)nc32)c1 | 54 |

---

Organism: Homo sapiens
Assay: Selectivity index, ratio of IC50 for human A431 cells harboring wild type EGFR to IC50 for human NCI-H1975 cells harboring EGFR L858R/T790M double mutant
Collected Ratio IC50 values appear next to each entry.
metric_name: Ratio IC50

| mol | reading |
| --- | --- |
| C=CC(=O)Nc1cccc(-n2c(=O)n(C(C)C)c(=O)c3cnc(Nc4ccc(N5CCN(C)CC5)c(OC)c4)nc32)c1 | 28 |
| C=CC(=O)Nc1cccc(-n2c(=O)n(CCCc3ccccc3)c(=O)c3cnc(Nc4ccc(N5CCC(N(C)C)CC5)cc4OC)nc32)c1 | 4.1 |
| C=CC(=O)Nc1cccc(-n2c(=O)n(CCC)c(=O)c3cnc(Nc4ccc(N5CCC(N(C)C)CC5)cc4OC)nc32)c1 | 69 |
| C=CC(=O)Nc1cccc(-n2c(=O)n(C(C)C)c(=O)c3cnc(Nc4ccc(N(C)CCN(C)C)cc4OC)nc32)c1 | 14 |
| C=CC(=O)Nc1cccc(-n2c(=O)n(C(C)C)c(=O)c3cnc(Nc4ccc(OCCN(C)C)cc4OC)nc32)c1 | 36 |
| C=CC(=O)Nc1cccc(-n2c(=O)n(C)c(=O)c3cnc(Nc4ccc(N5CCSCC5)cc4OC)nc32)c1 | 15 |
| C=CC(=O)Nc1cccc(-n2c(=O)n(C(C)C)c(=O)c3cnc(Nc4ccc(N5CCC(N6CCN(C)CC6)CC5)cc4OC)nc32)c1 | 9 |

Recorded values, source ChEMBL document CHEMBL4118273.
